Origin of measurements: ChEMBL document CHEMBL4616716

Catalogue of logD at 1 h values
# methodSummary: Octanol/phosphate buffer partition coefficient, LogD of compound at pH 7.4 mixed for 1 hr using benchtop-rotator followed by further incubation for 1 hr by ESI-LC-MS/MS analysis
# Format: physicochemical

{"givenSmiles": "O=C(C[C@H]1CC[C@@H](C(=O)O)CC1)N1CCc2c(n(Cc3cccc(F)c3)c3ncccc23)C1", "logD at 1 h": 1.45}
{"givenSmiles": "O=C(C[C@H]1CC[C@@H](C(=O)O)CC1)N1CCc2c(n(Cc3ccc(F)cc3F)c3ncccc23)C1", "logD at 1 h": 1.36}
{"givenSmiles": "O=C(O)CCCCC(=O)N1CCc2c(n(Cc3cccc(F)c3)c3ncccc23)C1", "logD at 1 h": 0.51}
{"givenSmiles": "O=C(C[C@H]1CC[C@H](C(=O)O)CC1)N1CCc2c(n(Cc3ccc(F)cc3F)c3ncccc23)C1", "logD at 1 h": 1.15}
{"givenSmiles": "O=C(C[C@H]1CC[C@H](C(=O)O)CC1)N1CCc2c(n(Cc3cccc(F)c3)c3ncccc23)C1", "logD at 1 h": 1.07}
{"givenSmiles": "O=C(O)c1ccc(CC(=O)N2CCc3c(n(Cc4cccc(F)c4)c4ncccc34)C2)cc1", "logD at 1 h": 0.67}
